The entries below come with measured pKd values attached.
Molecular target: Htc10-LBD (Vreelandella titanicae, UniProt L9UCI1, Y141F)
Sequence (L9UCI1 48-325 Y141F): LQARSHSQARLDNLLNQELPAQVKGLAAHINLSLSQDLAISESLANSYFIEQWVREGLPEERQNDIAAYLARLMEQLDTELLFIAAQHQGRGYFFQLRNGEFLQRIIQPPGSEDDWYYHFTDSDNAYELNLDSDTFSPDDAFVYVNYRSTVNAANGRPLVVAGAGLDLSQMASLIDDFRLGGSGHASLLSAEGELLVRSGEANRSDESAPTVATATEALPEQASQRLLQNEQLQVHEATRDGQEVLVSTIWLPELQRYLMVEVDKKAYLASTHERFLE
Assay: isothermal titration calorimetry
pKd: −log10 of the molar value.

{"smilesText": "O=c1[nH]cnc2nc[nH]c12", "testedTarget": "Htc10-LBD (Vreelandella titanicae, UniProt L9UCI1, Y141F)", "pKd": 4.86}
{"smilesText": "Nc1nc2nc[nH]c2c(=O)[nH]1", "testedTarget": "Htc10-LBD (Vreelandella titanicae, UniProt L9UCI1, Y141F)", "pKd": 4.60}

* * *

The entries below come with measured ΔTm (ºC) Biolog plates values attached.
Target: Htc10-LBD (Vreelandella titanicae, UniProt L9UCI1)
Conditions: Biolog plate screen, est. 3-6 mM; binder
recordedEndpoint: ΔTm (ºC) Biolog plates (degC)

{"compound": "O=c1[nH]cnc2nc[nH]c12 [hypoxanthine]", "recordedEndpoint": "ΔTm (ºC) Biolog plates", "observed": 8.0}
{"compound": "Nc1nc2c(ncn2[C@@H]2O[C@H](CO)[C@@H](O)[C@H]2O)c(=O)[nH]1 [Guanosine]", "recordedEndpoint": "ΔTm (ºC) Biolog plates", "observed": 2.5}
{"compound": "O=c1[nH]c(=O)c2nc[nH]c2[nH]1 [Xanthine]", "recordedEndpoint": "ΔTm (ºC) Biolog plates", "observed": 2.5}
{"compound": "Cc1cn([C@H]2C[C@H](O)[C@@H](CO)O2)c(=O)[nH]c1=O [Thymidine]", "recordedEndpoint": "ΔTm (ºC) Biolog plates", "observed": 2.0}
{"compound": "Cc1c[nH]c(=O)[nH]c1=O [Thymine]", "recordedEndpoint": "ΔTm (ºC) Biolog plates", "observed": 2.0}
{"compound": "O=c1[nH]cnc2c1ncn2[C@H]1C[C@H](O)[C@@H](CO)O1 [2-deoxy-inosine]", "recordedEndpoint": "ΔTm (ºC) Biolog plates", "observed": 6.5}

* * *

Target: Htc10-LBD (Vreelandella titanicae, UniProt L9UCI1, D179A/N177A/Y141F)
Experiment: isothermal titration calorimetry
pKd: −log10 of the molar value.
recordedEndpoint: pKd

{"smilesText": "O=c1[nH]cnc2nc[nH]c12", "observed": 3.85}
{"smilesText": "Nc1nc2nc[nH]c2c(=O)[nH]1", "observed": 3.93}
